This collection of values is drawn from PubChem BioAssay (EPA / NIEHS).

assay: ATG_CRE_CIS: Attagene CIS-FACTORIAL HepG2 Assay for human cAMP Responsive Element (CRE) binding protein 3 (AID 2282926); details: HepG2 CRE cis-reporter, Attagene multiplexed mRNA; actives raise or lower the signal
The source made the active and inactive calls. How the source made its calls: active means hit-call score of the fitted dose curve at least 0.9, where 1 is the maximum; inactive means score below 0.9.
Outcome codes: active, inactive

- C[Si](C)(CCCN)O[Si](C)(C)CCCN: inactive
- CCOc1nc(F)cc2nc(S(=O)(=O)Nc3c(Cl)cccc3C(=O)OC)nn12: inactive
- Cc1cc(C)c(C(=O)O)c(C)c1: inactive
- CC=CC(=O)N(CC)c1ccccc1C: inactive
- CC(=O)Oc1ccc(C(C)=O)cc1: inactive
- O=C1CCCCCCCCCCC(=O)OCCO1: inactive
- Cn1c([N+](=O)[O-])cnc1COC(N)=O: inactive
- Cc1ccc(N/N=c2\c(=O)cc/c(=N/Nc3ccc(S(=O)(=O)O)cc3)c2=O)c(C)c1: inactive
- c1cc(C(c2ccc(OCC3CO3)cc2)C(c2ccc(OCC3CO3)cc2)c2ccc(OCC3CO3)cc2)ccc1OCC1CO1 (stereo not given): active
- O=S1(=O)OC(c2ccc(O)cc2)(c2ccc(O)cc2)c2ccccc21: inactive
- CCCCC(CC)COC(=O)c1ccccc1 (stereo not given): inactive
- Cc1cccc(OCCOc2cccc(C)c2)c1: inactive
- O=c1cc(-c2ccccc2)oc2ccccc12: inactive
- COc1ccc([C@@H]2CC(=O)c3c(O)cc(O[C@@H]4O[C@H](CO[C@@H]5O[C@@H](C)[C@H](O)[C@@H](O)[C@H]5O)[C@@H](O)[C@H](O)[C@H]4O)cc3O2)cc1OC: inactive
- CC(=O)CC(N)=O: inactive
- OC1OCCOC1O (stereo not given): inactive
- O=Nc1ccc(O)cc1: inactive
- CC(C)(C)C(=O)CCc1ccc(Cl)cc1: inactive
- CC(C)c1ccc(C=O)cc1: inactive
- O=C1OC(=O)c2cc(Oc3ccc4c(c3)C(=O)OC4=O)ccc21: inactive
- COCC(C)N (stereo not given): inactive
- [Cl][Bi]([Cl])([c]1ccccc1)([c]1ccccc1)[c]1ccccc1: active
- CC(=O)NS(=O)(=O)c1ccc(N)cc1: inactive
- Cc1ccc(C2OC[C@@H]3OC(c4ccc(C)cc4)O[C@H]([C@H](O)CO)[C@@H]3O2)cc1 (stereo not given in full): inactive
- O=[N+]([O-])C1(Br)COCOC1: active

---

biological target: Retinoic acid receptor alpha (Homo sapiens); test: ATG_DR5_RAR_CIS: Attagene CIS-FACTORIAL HepG2 Assay for human Retinoic Acid Receptor Alpha (RARE), DR5 submotif (AID 2282934); conditions: HepG2 Attagene cis-factorial RARE DR5 reporter, mRNA; actives raise or lower the signal
The source made the active and inactive calls. The calls were made as follows: active = hit-call score of the fitted dose curve at least 0.9, where 1 is the maximum; inactive = score below 0.9.
Outcome codes: active, inactive

* O=C(Nc1ccccc1SSc1ccccc1NC(=O)c1ccccc1)c1ccccc1 | inactive
* CC1(C)O[C@@H]2C[C@H]3[C@@H]4C[C@H](F)C5=CC(=O)C=C[C@]5(C)[C@@]4(F)[C@@H](O)C[C@]3(C)[C@]2(C(=O)CO)O1 | inactive
* CC=CCO | inactive
* Cc1oncc1C(=O)Nc1ccc(C(F)(F)F)cc1 | inactive
* CCO[Si](CCCN=C=O)(OCC)OCC | inactive
* CCOC(F)(F)C(F)(F)C(F)(F)C(F)(F)F | inactive
* CCCCC(CC)COCC1CO1 (stereo not drawn) | inactive
* C[Si](C)(CCCN)O[Si](C)(C)CCCN | inactive
* COCCCOCCCOC | inactive
* CCOCC(=O)O | inactive
* CC/C=C\C/C=C\C/C=C\CCCCCCCC(=O)O | inactive
* CCCCCCCC/C=C\CCCCCCCC(=O)OCCO | active
* CCc1c(C(=O)O)c(=O)cnn1-c1ccc(Cl)cc1 | inactive

---

test: ATG_TA_CIS: Attagene CIS-FACTORIAL HepG2 Assay for human TA Basal Promoter (AID 2282964); conditions: HepG2 Attagene CIS-factorial TA basal promoter reporter; actives raise or lower the signal
Calls of active or inactive are those of the source. Rule for the calls: active = hit-call score of the fitted dose curve at least 0.9, where 1 is the maximum; inactive = score below 0.9.
Outcome codes: TRUE = active, FALSE = inactive

* O=C1CC2CC1C1CCCC21 (centres undefined) | FALSE
* COCCCOCCCOC | FALSE
* C[C@]12C=CC(=O)C=C1CC[C@@H]1[C@@H]2[C@@H](O)C[C@@]2(C)[C@H]1CC[C@]2(O)C(=O)CO | FALSE
* CC(C)(C)C(=O)C=Cc1ccc(Cl)cc1 | TRUE
* COC(=O)c1cc(Cl)ccc1[N+](=O)[O-] | FALSE
* OC1OCCOC1O (centres undefined) | FALSE
* O=C1CCC(=O)N1Cl | FALSE
* C/C=C\C/C=C/CCCCCCCCOC(C)=O | TRUE
* CC(CC=O)c1ccccc1 (centres undefined) | FALSE
* CCCCCc1ccc(Cl)cc1 | FALSE
* Cc1ccc2c(c1)C(=O)c1ccccc1C2=O | FALSE
* Cc1ccc(C2OC[C@@H]3OC(c4ccc(C)cc4)O[C@H]([C@H](O)CO)[C@@H]3O2)cc1 (some centres undefined) | FALSE
* Nc1nc2ccccc2[nH]1 | FALSE
* CCc1c(C(=O)O)c(=O)cnn1-c1ccc(Cl)cc1 | FALSE

---

target: Retinoic acid receptor alpha (Homo sapiens) (UniProt P10276); assay: ATG_DR5_RAR_CIS: Attagene CIS-FACTORIAL HepG2 Assay for human Retinoic Acid Receptor Alpha (RARE), DR5 submotif (AID 2282934); settings: HepG2 Attagene cis-factorial RARE DR5 reporter, mRNA; actives raise or lower the signal
Sequence (P10276 whole entry, looked up): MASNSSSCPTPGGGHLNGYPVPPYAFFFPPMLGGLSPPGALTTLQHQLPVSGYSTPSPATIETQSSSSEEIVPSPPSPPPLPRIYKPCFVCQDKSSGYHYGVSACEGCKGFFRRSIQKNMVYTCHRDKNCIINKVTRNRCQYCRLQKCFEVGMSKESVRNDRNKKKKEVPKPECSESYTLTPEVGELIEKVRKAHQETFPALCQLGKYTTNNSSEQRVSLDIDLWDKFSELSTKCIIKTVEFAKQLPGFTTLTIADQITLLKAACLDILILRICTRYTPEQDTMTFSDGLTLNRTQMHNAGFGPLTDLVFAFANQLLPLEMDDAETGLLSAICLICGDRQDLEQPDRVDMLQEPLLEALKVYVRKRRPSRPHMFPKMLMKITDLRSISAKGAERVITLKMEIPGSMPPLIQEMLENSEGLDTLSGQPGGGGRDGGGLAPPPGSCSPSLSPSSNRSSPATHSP
Calls of active or inactive are those of the source. The calls were made as follows: active = hit-call score of the fitted dose curve at least 0.9, where 1 is the maximum; inactive = score below 0.9.
Outcome codes: 1 for active, 0 for inactive

• N[C@H]1C(O)O[C@H](CO)[C@H](O)[C@@H]1O (stereo partly drawn) = 0
• CC(C)(C)c1n[nH]c(=O)n(N)c1=O = 0
• CCCCC(CC)COC(=O)c1ccccc1O (stereo not drawn) = 0
• [Cl][Bi]([Cl])([c]1ccccc1)([c]1ccccc1)[c]1ccccc1 = 0
• C=C(C)C(=O)OCC(C)C = 0
• COc1cc(NC(=O)CC(C)=O)c(OC)cc1Cl = 0
• O=C1c2ccccc2C(=O)C1c1nc2ccccc2c(Br)c1O = 0
• CCCNC(=O)NS(=O)(=O)c1ccc(Cl)cc1 = 0
• C(=CC=Nc1ccccc1)C=CNc1ccccc1 = 0
• O=C1CCC(=O)N1Cl = 0
• CCC(C)(C)C1CCCCC1OC(C)=O (stereo not drawn) = 0
• C=CC(C)(CCC=C(C)C)OC(=O)CC(C)C (stereo not drawn) = 0
• O=S(=O)(O)c1ccccc1C=Cc1ccc(-c2ccc(C=Cc3ccccc3S(=O)(=O)O)cc2)cc1 = 0
• CCCCCCC1(C)CCC(=O)O1 (stereo not drawn) = 0
• O=P(O)(O)Oc1ccccc1 = 0
• CCCCCCCOC(=O)CCC = 0
• COc1ccc(-c2coc3cc(O)ccc3c2=O)cc1 = 0
• O=C(OCC1CCC2OC2C1)C1CCC2OC2C1 (stereo not drawn) = 0
• CCCCCCCCCCc1ccccc1 = 1
• COC(=O)c1c(C)cc(O)c(C)c1O = 0
• Cn1c([N+](=O)[O-])cnc1COC(N)=O = 0
• CCCC(=O)OCc1ccccc1 = 0
• CC(C)CCCCCOC(=O)CCS = 0
• OCCc1ccncc1 = 0
• C=C(C)C(=O)OCCO = 0
• CC1(C)O[C@@H]2C[C@H]3[C@@H]4C[C@H](F)C5=CC(=O)CC[C@]5(C)[C@H]4[C@@H](O)C[C@]3(C)[C@]2(C(=O)CO)O1 = 0
• C=CC(=O)OCCOC1C2CCC1C1CC=CC12 (stereo not drawn) = 0
• CC1(C)[C@H]2CC[C@]1(C)C(=O)C2 = 0

---

target: X-box-binding protein 1 (Homo sapiens) (UniProt P17861); experiment: ATG_Xbp1_CIS: Attagene CIS-FACTORIAL HepG2 Assay for human X-box Binding Protein 1 (XBP1) (AID 2282972); conditions: HepG2 XBP1 cis-element reporter, Attagene multiplex; actives raise or lower the signal
Sequence (P17861 whole entry, looked up): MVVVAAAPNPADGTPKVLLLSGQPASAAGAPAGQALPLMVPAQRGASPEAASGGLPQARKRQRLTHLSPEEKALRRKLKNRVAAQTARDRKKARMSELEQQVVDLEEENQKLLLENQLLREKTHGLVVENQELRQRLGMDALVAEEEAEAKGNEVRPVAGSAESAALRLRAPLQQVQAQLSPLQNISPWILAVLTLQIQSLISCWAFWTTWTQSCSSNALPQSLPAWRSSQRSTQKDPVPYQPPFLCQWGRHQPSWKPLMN
Activity calls are given as the source filed them. Rule for the calls: active = hit-call score of the fitted dose curve at least 0.9, where 1 is the maximum; inactive = score below 0.9.
Outcome codes: true = active, false = inactive

- CCN(CC#N)c1cccc(C)c1: false
- C(=CC=Nc1ccccc1)C=CNc1ccccc1: false
- Cc1cnc(NC(=O)C2=C(O)c3ccccc3S(=O)(=O)N2C)s1: false
- c1c[nH]cn1: false
- CCCCC(CC)COC(=O)c1ccccc1O (configuration not stated): false
- C=CC(C)(CCC=C(C)C)OC(=O)C(C)C (configuration not stated): false
- CN(C)c1ccc(C(=N)c2ccc(N(C)C)cc2)cc1: true

---

Experiment: ATG_VDRE_CIS: Attagene CIS-FACTORIAL HepG2 Assay for human Vitamin D Receptor Element (VDRE) (AID 2282968)
Conditions: HepG2 VDRE cis-reporter transcription, actives raise or lower the signal
Method: ATG_CIS is a cell-based, multiplexed-readout assay that uses HepG2, a human liver cell line, with measurements taken at 24 hours after chemical dosing in a 24-well plate.ATG_VDRE_CIS is one of 52 assay component(s) measured or calculated from the ATG_CIS assay. […] This assay endpoint, ATG_VDRE_CIS, was analyzed with bidirectional fitting relative to DMSO as the negative control and baseline of activity. […]
Active and inactive are the calls of the source. How the source made its calls: active means hit-call score of the fitted dose curve at least 0.9, where 1 is the maximum; inactive means score below 0.9.
Measured endpoint: AC50

- [Cl][In]([Cl])[Cl]: inactive
- CCOC(=O)c1ccc(N(C)C)cc1: 65.8 µM (active)
- CC(=O)Oc1ccc(C(C)=O)cc1: inactive
- C=CC(=O)OCCC(=O)O: inactive
- O=C(Nc1cccc(C(F)(F)F)c1)c1cc(Br)cc(Br)c1O: 2.18 µM (active)
- c1ccc(CNCc2ccccc2)cc1: inactive
- NCCCN1CCN(CCCN)CC1: inactive
- C=C(C)C(=O)OCCOc1ccccc1: inactive
